Reference source: paper PMC12040169

assay-method-text: in vitro
protocol-conditions: human, hela cells, % viability
Documented viability at 28.5 h, 10 µM across a set of compounds
Give the value, in units of %, as a plain number.

Use these answered entries as a reference point.
| compound | viability at 28.5 h, 10 µM / % |
| --- | --- |
| COc1cc(CNC(C)(C)CO)c(Cl)cc1OC(C)C [CBK269542] | 89.9 |
| CN(C(=O)C1CCN(C(=O)c2ccoc2)CC1)C(c1ccc(F)cc1)c1ccccn1 (stereo not shown) [CBK060206] | 91.5 |
| Cc1cc(NCC2CCCO2)n2nc(C)c(-c3ccccc3)c2n1 (stereo not shown) [CBK304531] | 90.5 |

query: viability at 28.5 h, 10 µM lookup needed for c1ccc2cc(-c3cncc(NCc4ccncc4)n3)ccc2c1 [CBK037899] , thanks.
result: 92.2

* * *

Documented viability at 28.5 h, 10 µM across a set of compounds
assay-method-text: in vitro
protocol-conditions: human, hela cells, % viability
In your response, put the unit directly after the numeric value.

Use these answered entries as a reference point.
| smiles-text | viability at 28.5 h, 10 µM |
| --- | --- |
| O=c1[nH]c(/C=C/c2cc(Br)ccc2OCc2cccc3ccccc23)c([N+](=O)[O-])c(=O)[nH]1 | 86.3% |
| COc1cccc(NC(=O)N2CC[C@H]3CC(=O)N(c4ccccc4)CC[C@H]3C2)c1 | 95.4% |

With those in mind, consider the next compound.
query: viability at 28.5 h, 10 µM lookup needed for `Nn1cnn2c(SCC(=O)Nc3ccc(Cl)cc3)nnc12` , thanks.
result: 99%

* * *

Documented viability at 28.5 h, 10 µM across a set of molecules
assay-method-text: in vitro
protocol-conditions: human, hela cells, % viability
Give the value, in units of %, as a plain number.

Use these answered entries as a reference point.
| molecule | observed |
| --- | --- |
| COCc1nc2n(n1)CC(NC(C)C(C)OCc1ccccc1)CC2 (centres unmarked) | 95.8 |
| COc1ccc(-c2n[nH]c(N)n2)cc1 | 116 |
| CN(C)c1ccc(CC(=O)Nc2cnc(-c3ccc(F)c(Cl)c3)c(-c3ccco3)n2)cc1 | 97.9 |
| CC(Sc1nc2ccccc2c(=O)n1C)C(=O)N1CCOCC1 (centres unmarked) | 88.5 |
| O=C(O)CC1S/C(=N/N=C/c2cn(Cc3ccccc3)c3ccccc23)NC1=O (centres unmarked) | 102 |

query: viability at 28.5 h, 10 µM lookup needed for CCN1C(=O)CC2(C1=O)C(=O)N(CC)c1ccc(C)cc12 (centres unmarked) , thanks.
result: 99.4

query: viability at 28.5 h, 10 µM lookup needed for `Cc1ncc([N+](=O)[O-])n1CC(=O)NC1CCCCCC1` , thanks.
result: 97.4

query: viability at 28.5 h, 10 µM lookup needed for `O=C(Nc1ccccc1-c1nc2ccccc2s1)c1sc2cc(Cl)ccc2c1Cl` , thanks.
result: 88.5

query: viability at 28.5 h, 10 µM lookup needed for CCC1CCCCN1CC(=O)N1CCCC1c1nc2ccccc2[nH]1 (centres unmarked) , thanks.
result: 93.5

query: viability at 28.5 h, 10 µM lookup needed for `Cc1ccc2c(c1)N(CC(N)=O)C(=O)CO2` , thanks.
result: 92.9

query: viability at 28.5 h, 10 µM lookup needed for `CCCCc1ccc(NS(=O)(=O)c2ccc(C)c(C(=O)O)c2)cc1` , thanks.
result: 116

* * *

assay-method-text: in vitro
protocol-conditions: human, hela cells, % viability
Documented viability at 28.5 h, 10 µM across a set of molecules
Give the value, in units of %, as a plain number.

| molecule | unit-label | viability at 28.5 h, 10 µM |
| --- | --- | --- |
| COc1cc2cc(O)c(C)c(NCc3ccco3)c2cc1OC | % | 84.4 |
| COc1ccn2c(CCCN(C)C3Cc4ccccc4C3)nc(-c3ccc4c(c3)OCO4)c2c1 | % | 100 |
| COc1ccc(Nc2ccc(-c3ccc(C(=O)O)cc3)cn2)cc1 | % | 95.2 |

With those in mind, consider the next molecule.
query: viability at 28.5 h, 10 µM lookup needed for `CCOc1cc(OCC)cc(C(=O)N2CCC3(CC2)CC(=O)c2cc(CC)ccc2O3)c1` , thanks.
result: 101

* * *

assay-method-text: in vitro
protocol-conditions: human, hela cells, % viability
Documented viability at 28.5 h, 10 µM across a set of compounds
Give the value, in units of %, as a plain number.

Use these answered entries as a reference point.
| compound | viability at 28.5 h, 10 µM (%) |
| --- | --- |
| COc1cc(-c2nccnc2N[C@@H]2CCN(Cc3ccccc3)C2)cc(OC)c1OC | 96.7 |
| O=c1oc2ccccc2c(NCCCN2CCOCC2)c1[N+](=O)[O-] | 120 |
| CCCc1cnc(N2CCN(S(=O)(=O)c3ccc(NC(C)=O)cc3Cl)CC2)nc1 | 117 |
| O=C(O)c1ccc(NS(=O)(=O)Cc2ccccc2)cc1 | 105 |
| CNS(=O)(=O)c1cc(C(=O)NCc2ccccc2)ccc1OC | 94.9 |

With those in mind, consider the next compound.
query: viability at 28.5 h, 10 µM lookup needed for `Sc1nnc(COc2ccc(Cl)cc2Cl)n1Cc1ccccc1` , thanks.
result: 88.2

* * *

assay-method-text: in vitro
protocol-conditions: human, hela cells, % viability
measurement-label: viability at 28.5 h, 10 µM (%)
Give the value, in units of %, as a plain number.

| compound | viability at 28.5 h, 10 µM / % |
| --- | --- |
| Cc1c(Cc2ccccc2)sc(NC(=O)c2cccnc2)c1C(N)=O | 101 |
| CCOC(=O)C1=C(CSc2nc3ccccc3[nH]2)NC(=O)NC1c1cccc([N+](=O)[O-])c1 (centres unmarked) | 96.2 |
| CCn1c(C2CCN(C(=O)CCCn3cncn3)CC2)nn(C)c1=O | 92.4 |

query: viability at 28.5 h, 10 µM lookup needed for CCC(=O)N1c2ccc(C(O)CN3CCSCC3)cc2CC1C (centres unmarked) , thanks.
result: 91.5

query: viability at 28.5 h, 10 µM lookup needed for Cc1nccn1CC1CCCN(Cc2nc3ccccc3n2C)C1 (centres unmarked) , thanks.
result: 110

* * *

assay-method-text: in vitro
protocol-conditions: human, hela cells, % viability
measurement-label: viability at 28.5 h, 10 µM (%)
Give the value, in units of %, as a plain number.

Use these answered entries as a reference point.
| compound | viability at 28.5 h, 10 µM [%] |
| --- | --- |
| CCCC(=O)N1CCC(C(=O)Nc2ccccc2F)CC1 | 108 |
| CSc1ncc(Cl)c(C(=O)Nc2nnc(SC/C=C/c3ccccc3)s2)n1 | 93.5 |
| CC(NC(=O)c1c2c(nn1C)CCCC2)c1ccccn1 (stereo not shown) | 95.2 |
| O=C(Cn1c(=O)oc2ccccc21)Nc1ccc(N2CCOCC2)c(Cl)c1 | 102 |
| OCCCNC(=S)Nc1ccc(Br)cc1Cl | 82.3 |

query: viability at 28.5 h, 10 µM lookup needed for `CC(C)n1c(=O)n(CC(=O)NCCc2ccccc2)c2cccnc21` , thanks.
result: 94.8

query: viability at 28.5 h, 10 µM lookup needed for `COc1ccc(-n2ncc3c2CCCN(C(=O)C2CCCC2)C3)cc1` , thanks.
result: 78

query: viability at 28.5 h, 10 µM lookup needed for `CCC(C)(C)c1ccc(S(=O)(=O)N2CCCN(Cc3ccc4cccc(O)c4n3)CC2)cc1` , thanks.
result: 90.5

query: viability at 28.5 h, 10 µM lookup needed for COc1ccc(C(C)N(CCN2CCOCC2)C(=O)NCc2cccc3ccccc23)cc1OC (stereo not shown) , thanks.
result: 96.4

query: viability at 28.5 h, 10 µM lookup needed for CC(C)C(CCC(=O)Nc1ccccc1[N+](=O)[O-])C(=O)O (stereo not shown) , thanks.
result: 86.3

* * *

Documented viability at 28.5 h, 10 µM across a set of molecules
assay-method-text: in vitro
protocol-conditions: human, hela cells, % viability
Give the value, in units of %, as a plain number.

Use these answered entries as a reference point.
| molecule | measurement-label | unit-label | observed |
| --- | --- | --- | --- |
| O=C(c1ccco1)N1Cc2nc[nH]c2C[C@H]1c1nc(-c2ccc3ccccc3c2)no1 [CBK288965] | viability at 28.5 h, 10 µM | % | 108 |
| NS(=O)(=O)c1ccc(CCNC2CC(=O)N(Cc3ccccc3)C2=O)cc1 (stereo not shown) [CBK267439] | viability at 28.5 h, 10 µM | % | 90.5 |

query: viability at 28.5 h, 10 µM lookup needed for N[C@@H]1CCCN(C(=O)C2CC2)[C@H]1c1ccccc1F [CBK281563] , thanks.
result: 97

query: viability at 28.5 h, 10 µM lookup needed for CC1=NN(C(=O)NS(=O)(=O)c2ccccc2Cl)C(C)(C)C1 [CBK018947] , thanks.
result: 120
